- Tested on: A549/ATCC NSCLC
- protocolText: NCI-60 one-dose screen, 48 h (100 = growth as untreated, 0 = no growth, -100 = all killed)
- testParameters: 10 µM
Compounds without any hit were thinned out: in the full panel of roughly 83,000, 20% have a hit.
parameterMeasured: growth (%)

>>> result("CC/C(=C(\\c1ccc(O)cc1)c1ccc(OCCNC)cc1)c1ccccc1")
88.2
>>> result("CC/C(=C(\\c1ccc(O)cc1)c1ccc(OCCN(C)C(=O)COCCNC(=O)Cc2ccc3c(c2)CN([C@@H]2CCC(=O)NC2=O)C3=O)cc1)c1ccccc1")
75.2
>>> result("CC/C(=C(/c1ccc(O)cc1)c1ccc(OCCN(C)C(=O)COCCOCCNC(=O)c2ccc3c(c2)CN([C@@H]2CCC(=O)NC2=O)C3=O)cc1)c1ccccc1")
85.3
>>> result("CC/C(=C(/c1ccc(O)cc1)c1ccc(OCCN(C)C(=O)CCOCCNC(=O)Cc2ccc3c(c2)CN([C@@H]2CCC(=O)NC2=O)C3=O)cc1)c1ccccc1")
87.8
>>> result("CC/C(=C(/c1ccc(O)cc1)c1ccc(OCCN(C)C(=O)COCCOCCNC(=O)Cc2ccc3c(c2)CN([C@@H]2CCC(=O)NC2=O)C3=O)cc1)c1ccccc1")
88.1

* * *

# growth per record follows
- System: OVCAR-5 ovarian
- protocolText: NCI-60 one-dose screen, 48 h (100 = growth as untreated, 0 = no growth, -100 = all killed)
- testParameters: 10 µM unless noted
About 83,000 compounds went through this panel and 20% of them were active in at least one assay; those are over-represented in the sample as a whole.
parameterMeasured: growth (%)

>>> result("COc1ccc2c(c1)C(=O)N(C)C2C1c2c(cc3c(c2OC)OCO3)CCN1C (centres undefined)")
67.2
>>> result("COc1cc2cc(C(=O)N3C[C@@H](CCl)c4c3cc(OC(=O)N(CCC(=O)N3CCN(C)CC3)C3CCCCC3)c3ccccc43)[nH]c2c(OC)c1OC")
-59.1
>>> result("COc1cc(/C=C/C(=O)c2ccc(S(=O)(=O)NCCNc3nc(N(C)C)nc(N4CCOCC4)n3)cc2)cc(OC)c1OC")
-33.1
>>> result("CCCCCCCCc1ccc(C(=O)Nc2cccc(O)c2)cc1")
100

* * *

- Test system: A549/ATCC NSCLC
- protocolText: NCI-60 one-dose screen, 48 h (100 = growth as untreated, 0 = no growth, -100 = all killed)
- testParameters: 10 µM unless noted
About 83,000 compounds went through this panel and 20% of them were active in at least one assay; those are over-represented in the sample as a whole.
# growth per record follows
parameterMeasured: growth (%)

>>> result("CCOc1ccccc1[C@H]1C(C(=O)c2ccc(Cl)cc2)C2(N[C@@H]1c1ccccc1)C(=O)Nc1ccc(Br)cc12 (some centres undefined)")
41
>>> result("O=c1[nH]c2ccccc2cc1COc1ccc(Nc2nccc(-c3ccc(Cl)cc3)n2)cc1")
101
>>> result("Cn1cc(-c2cc(N)n3nc(-c4c[nH]c5ccc(Cl)cc45)cc3n2)c2cccnc21")
-77.2
>>> result("N#C/C(=C/c1ccc([N+](=O)[O-])cc1)c1nnc(NC(=O)c2ccc(-n3c(=O)[nH]c4ccccc4c3=O)cc2)s1")
102

* * *

- System: MDA-MB-435 melanoma
- protocolText: NCI-60 one-dose screen, 48 h
- testParameters: 10 µM unless noted
Compounds without any hit were thinned out: in the full panel of roughly 83,000, 20% have a hit. The source made the active and inactive calls. Rule for the calls: active = growth percent below 10; inactive = the rest.
Outcomes: active, inactive

>>> classlabel("O=C1/C(=C/C=C/c2ccco2)SC(=S)N1CC(=S)C1C=CS(=O)(=O)C1 (configuration not stated)")
"inactive"
>>> classlabel("NS(=O)(=O)c1cccc(Nc2nc(SCC(=O)c3ccc(F)cc3)nc3ccccc23)c1")
"active"
>>> classlabel("FC(F)(F)c1cc2c(Cl)ncnc2n1CCN1CCOCC1")
"inactive"
>>> classlabel("Cc1ccc(N=Nc2c(N)nn3c(-c4cc5ccccc5oc4=O)ccnc23)cc1")
"inactive"
>>> classlabel("CC[C@]12C=CCN3CC[C@@]4(c5ccc(OC)cc5N(C)[C@H]4[C@@](O)(C(=O)OC)[C@@H]1OC(=O)CCCC[P+](c1ccc(F)cc1)(c1ccc(F)cc1)c1ccc(F)cc1)[C@@H]32")
"active"
>>> classlabel("COc1ccc(CCC2NCCc3c(Br)c4c(c(OC)c32)OCO4)cc1 (configuration not stated)")
"active"
>>> classlabel("CCCn1c(NC(=O)c2cccc(C(N)=O)c2)nc2cc(CN3CCCCC3)ccc21")
"inactive"
>>> classlabel("CC(=O)Nc1ccc(S(=O)(=O)Nc2ccc(-c3ccc4c(c3)NC(=O)/C4=C\\c3ccc[nH]3)cc2)cc1")
"inactive"
>>> classlabel("O=C(N/N=C/c1ccc(-c2cccc([N+](=O)[O-])c2)s1)c1[nH]c2ccc(Br)cc2c1-c1ccccc1")
"inactive"
>>> classlabel("CC(C)(C)C(=O)c1c2c(c3ccc4c5ccccc5ccc4n13)C(=O)c1ccccc1C2=O")
"inactive"
>>> classlabel("COC(=O)c1c(C(=O)OC)c2c3ccccc3c3ccccc3n2c1C(=O)C(F)(F)F")
"inactive"
>>> classlabel("N#Cc1cc(-c2ccnc(Nc3ccc(N4CCN(C5COC5)CC4)cc3)n2)ccc1N1CCCC1")
"inactive"
>>> classlabel("COc1ccc(/C=C/C(=O)c2ccc(S(=O)(=O)NCCNc3nc(N(C)C)nc(N4CCOCC4)n3)cc2)cc1")
"inactive"
>>> classlabel("O=S(=O)(c1nc(-c2ccc(Br)cc2)oc1-c1ccc(Cl)cc1)N1CCCC(O)C1 (configuration not stated)")
"inactive"
>>> classlabel("N#CC1=C(c2ccco2)Nc2c(c(-c3ccccc3)nn2-c2ccccc2)C12C(=O)Nc1ccc(Cl)cc12 (configuration not stated)")
"inactive"
>>> classlabel("O=C(Cn1c(-c2ccccc2)nc2ccccc21)N=Nc1c(O)[nH]c2ccc(Br)cc12")
"active"
>>> classlabel("COc1cccc(-c2ccc(/C=N/NC(=O)c3[nH]c4ccc(Br)cc4c3-c3ccccc3)s2)c1")
"active"
>>> classlabel("O=C(N/N=C/c1c[nH]c2ccccc12)Nc1ccc(F)c(Cl)c1")
"active"
>>> classlabel("CCCCCCCCCCCCCCCCCC(=O)Nc1ccc(OC)cc1")
"inactive"
>>> classlabel("Clc1ccccc1Nc1nnc(-c2c[nH]c3ccccc23)o1")
"active"
>>> classlabel("CCOc1ccc(-c2cc(-c3cc(C(C)C)c(O)cc3C)nn2-c2ccc(S(N)(=O)=O)cc2)cc1")
"active"
>>> classlabel("COc1ccc(/C=C/c2nc3ccccc3n3c(-c4cccc([N+](=O)[O-])c4)nnc23)cc1")
"active"
>>> classlabel("COc1cc(/C=C/C(=O)c2ccc(S(=O)(=O)NCCNc3nc(N(C)C)nc(N4CCOCC4)n3)cc2)cc(OC)c1OC")
"active"
>>> classlabel("CCCCCCCCc1cccc(CC(=O)Nc2ccc(C)cc2C(=O)O)c1")
"inactive"
>>> classlabel("CNc1nc2ccccc2n2c(-c3ccc(O)c(O)c3)cnc12")
"active"
>>> classlabel("Cc1cc(C)c2[nH]c(=O)c(C(c3nnnn3Cc3ccc4c(c3)OCO4)N3CCN(C)CC3)cc2c1 (configuration not stated)")
"inactive"
>>> classlabel("N#CC1=C(c2ccco2)Nc2c(c(-c3ccccc3)nn2-c2ccccc2)C12C(=O)Nc1ccc(Br)cc12 (configuration not stated)")
"inactive"
>>> classlabel("CC(C)CN1C(=O)/C(=C\\C(=O)c2cc3ccccc3oc2=O)c2ccccc21")
"inactive"
>>> classlabel("NS(=O)(=O)c1ccc(Nc2nc(N/N=C/c3cc(Br)c(O)c(Br)c3)nc(Nc3ccccc3)n2)cc1")
"inactive"
>>> classlabel("COc1cc(/C=N/NC(=O)c2ccc(OCc3nc4ccc(C)cc4[nH]3)cc2)cc(OC)c1OC")
"inactive"
>>> classlabel("O=C(N/N=C/c1ccc(Cl)cc1)c1ccc(OCc2nc3ccc(Cl)cc3[nH]2)cc1")
"active"
>>> classlabel("COc1ccc2[nH]c(O)c(N=Nc3nc(-c4ccc(Cl)cc4)cs3)c2c1")
"inactive"
>>> classlabel("CCCCCCCCc1ccc(C(=O)Nc2cccc(O)c2)cc1")
"inactive"
>>> classlabel("CCOc1ccccc1[C@H]1C(C(=O)c2ccc(Cl)cc2)C2(N[C@@H]1c1ccccc1)C(=O)Nc1ccccc12 (some centres not stated)")
"active"
>>> classlabel("O=C1CC(c2ccc(I)cc2)OC2C=Cc3ccccc3C12 (configuration not stated)")
"inactive"
>>> classlabel("CC1=C(C)C(=O)C(N2CCSCC2)=CC1=O")
"inactive"
>>> classlabel("Cc1ccc(-c2cc(C(=O)N=Nc3c(O)[nH]c4ccc(F)cc34)c3ccccc3n2)cc1")
"inactive"

* * *

- System: SF-295 CNS
- protocolText: NCI-60 one-dose screen, 48 h (100 = growth as untreated, 0 = no growth, -100 = all killed)
- testParameters: 10 µM unless noted
About 83,000 compounds went through this panel and 20% of them were active in at least one assay; those are over-represented in the sample as a whole.
Threshold check on growth: at or above 20% gives YES, strictly below gives NO.

>>> classlabel("COc1c(F)ccc(C(=O)Nc2ccc3nc(NC(=O)C4CCCN(S(=O)(=O)c5ccc(C(C)(C)C)cc5)C4)sc3c2)c1F (centres undefined)")
"YES"
>>> classlabel("N#CC1=C(c2ccco2)Nc2c(c(-c3ccccc3)nn2-c2ccccc2)C12C(=O)Nc1ccc(Br)cc12 (centres undefined)")
"YES"
>>> classlabel("COc1c(B(O)O)cccc1-c1nc2ccc3cn[nH]c3c2c2c1CCCC2")
"YES"
>>> classlabel("COc1cccc(NC(=O)c2ccc(NC(=O)CCl)s2)c1")
"YES"
>>> classlabel("Nc1cc2ccccc2c(=O)n1NC(=O)c1ccc(Br)cc1")
"YES"
>>> classlabel("Cn1cc(-c2cc(N)n3nc(-c4c[nH]c5ccccc45)cc3n2)c2ccccc21")
"NO"
>>> classlabel("Cc1cnc2ccc(Oc3ccccc3-c3ccccc3)nn12")
"YES"
>>> classlabel("N#CC1=C(c2cccs2)Nc2c(c(-c3ccccc3)nn2-c2ccccc2)C12C(=O)Nc1ccccc12 (centres undefined)")
"YES"
>>> classlabel("O=C1CCC(N2C(=O)c3cccc(NCCCCCC(=O)N4CCN(c5ccc6nc7c(nc6c5C(F)(F)F)C(=O)c5ncccc5C7=O)CC4)c3C2=O)C(=O)N1 (centres undefined)")
"NO"
>>> classlabel("O=C(N/N=C/c1ccoc1)c1[nH]c2ccc(Br)cc2c1-c1ccccc1")
"NO"
>>> classlabel("O=C1Nc2ccc(F)cc2/C1=C/C(=O)c1cc2ccccc2oc1=O")
"YES"
>>> classlabel("COc1ccc(NC2=C(I)C(=O)C(C)=C(C)C2=O)cc1")
"YES"
>>> classlabel("Cc1nn(-c2ccccc2)c2nc(C)n(CC(=O)N/N=C/c3ccccc3O)c(=O)c12")
"YES"
>>> classlabel("COc1cc(CNC(=O)C[C@H](C)CCC=C(C)C)ccc1OCc1cn(-c2ccc(Br)cc2)nn1")
"YES"
>>> classlabel("COc1cc(NC(=O)C(C)C)ccc1C(=O)NC(=S)Nc1ccc(S(N)(=O)=O)cc1")
"YES"
>>> classlabel("O=C(CSc1nc2ccccc2c(=O)[nH]1)Nc1ccccc1C(=O)O")
"YES"
>>> classlabel("COc1cc(/C=N/NC(=O)c2ccc(OCc3nc4ccc(Cl)cc4[nH]3)cc2)cc(OC)c1OC")
"NO"
>>> classlabel("N/C(=N\\c1nc2ccccc2s1)NC(=O)Nc1ccccc1[N+](=O)[O-]")
"NO"
>>> classlabel("COc1cc(CNC(=O)C[C@H](C)CCC=C(C)C)ccc1OCc1cn(-c2ccccc2F)nn1")
"YES"
